measuredTarget: Serine/threonine-protein phosphatase PP1-alpha catalytic subunit (Homo sapiens) (UniProt P62136)
Sequence (P62136 whole entry, looked up): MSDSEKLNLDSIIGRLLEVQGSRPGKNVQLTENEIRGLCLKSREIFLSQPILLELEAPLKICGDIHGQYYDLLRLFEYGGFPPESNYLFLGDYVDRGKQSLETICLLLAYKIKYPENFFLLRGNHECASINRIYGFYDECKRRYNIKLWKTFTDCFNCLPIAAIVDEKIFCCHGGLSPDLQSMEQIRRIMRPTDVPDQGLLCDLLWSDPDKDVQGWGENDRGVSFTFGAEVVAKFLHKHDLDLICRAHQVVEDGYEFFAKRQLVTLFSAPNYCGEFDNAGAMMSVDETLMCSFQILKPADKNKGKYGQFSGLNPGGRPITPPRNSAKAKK
testProtocol: inhibition of human PP1 catalytic subunit – biochemical, fluorescence, OMFP substrate, single point, counter-screen for PP5 inhibitor project, primary screen (AID 2235)
testContext: purified PP1alpha, at 6.7 µM
Hit rate of the full screen: of about 320,000 compounds, about 2,800 (0.88%) were called active.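 The calls were made as follows: active = inhibition above the mean inhibition of all tested compounds plus 3 SD, computed separately for each screening campaign (cut at about 15% in these data); inactive = the rest.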 The entries come from a sample that favours actives as a whole.
Write down the outcome that applies. Available outcomes: 1 (yes) = active, 0 (no) = inactive

I would be grateful if you could indicate the recorded call for `CC(C)NC(=O)NC(=O)COC(=O)c1ccc(NC(=O)CC#N)cc1` . 0 (no)

I would be grateful if you could indicate the recorded call for O=C1c2cccc(OCC(=O)N3N=C(c4cccs4)CC3c3ccc(F)cc3)c2CCN1Cc1ccccc1 (stereo unspecified) . 1 (yes)

I would be grateful if you could indicate the recorded call for CCCCN(CCCC)CCC(O)c1cc2c(Cl)cc(Cl)cc2c2cc(C(F)(F)F)ccc12 (stereo unspecified) . 1 (yes)

I would be grateful if you could indicate the recorded call for `CCCCC(=O)Nc1ccc(C(=O)Nc2cc(C(F)(F)F)ccc2Cl)cc1` . 0 (no)

I would be grateful if you could indicate the recorded call for CC(=O)Nc1ccc(NC(=O)CSc2nnc(COc3ccccc3C)n2CC2CCCO2)cc1 (stereo unspecified) . 1 (yes)

I would be grateful if you could indicate the recorded call for CON(C)S(=O)(=O)c1ccc2c(c1)NC(=O)C1CCCN21 (stereo unspecified) . 0 (no)

I would be grateful if you could indicate the recorded call for `Cc1ccc(NC(=O)CSc2nnc(COc3ccccc3C)o2)cc1` . 0 (no)

I would be grateful if you could indicate the recorded call for COCCCNC(=O)C1CC(=O)N(c2ccc(C)cc2)C1 (stereo unspecified) . 1 (yes)

I would be grateful if you could indicate the recorded call for CC1CCCCN1S(=O)(=O)CCNC(=O)c1ccccc1 (stereo unspecified) . 0 (no)

I would be grateful if you could indicate the recorded call for COCCNC(=O)C1CCN(C(=O)C2CC(=O)N(c3ccc(C)cc3)C2)CC1 (stereo unspecified) . 0 (no)

I would be grateful if you could indicate the recorded call for `COc1ccc(-c2nc3c(s2)CCc2onc(-c4ccc(Br)cc4)c2-3)cc1` . 0 (no)

I would be grateful if you could indicate the recorded call for Cc1ccc(N(C(=O)c2ccc(CN3CCOCC3)o2)C(C(=O)NCCC(C)C)c2cccs2)c(C)c1 (stereo unspecified) . 0 (no)

I would be grateful if you could indicate the recorded call for CC1CCCCN1S(=O)(=O)c1ccc(C(=O)Nc2nnc(-c3cccs3)o2)cc1 (stereo unspecified) . 1 (yes)

I would be grateful if you could indicate the recorded call for `CCC(=O)NC(=Nc1nc2ccccc2s1)NC(=O)CC` . 0 (no)

I would be grateful if you could indicate the recorded call for COc1ccc(C2CC(c3cccs3)=NN2C(=O)CCC(=O)O)cc1OC (stereo unspecified) . 0 (no)

I would be grateful if you could indicate the recorded call for `CN1CCN(CCCNC(=O)c2ccc(/C=C3\Oc4ccccc4N(Cc4ccc(Cl)cc4)C3=O)cc2)CC1` . 1 (yes)

I would be grateful if you could indicate the recorded call for `COC(=O)/C(C#N)=C/c1occc1C` . 0 (no)

I would be grateful if you could indicate the recorded call for `COC(=O)Cc1cc(=O)n(-c2nc3ccccc3s2)[nH]1` . 1 (yes)

I would be grateful if you could indicate the recorded call for `O=C(Nc1nnc(-c2ccco2)o1)c1ccc(S(=O)(=O)N2CCOCC2)cc1` . 0 (no)

I would be grateful if you could indicate the recorded call for `CCOc1ccc(NC(=O)c2ccc(NC(=O)COC(=O)c3ccc(NC(=O)CC#N)cc3)cc2)cc1` . 1 (yes)

I would be grateful if you could indicate the recorded call for CSCc1nnc(NC(=O)c2ccc(S(=O)(=O)N3CCCCC3C)cc2)o1 (stereo unspecified) . 1 (yes)
